Each recorded value in this set is attributed to ChEMBL document CHEMBL3988442.

Molecular target: Tyrosyl-tRNA synthetase, putative (Trypanosoma cruzi (strain CL Brener))
Assay: Trypanosoma cruzi tyrosyl tRNA synthetase (TcYRS) SOP
Format: functional
Parameters: scale not given: direction of the effect not stated beside the values
Details: 30 µM
The label is YES for Percent Effect below 10% and NO for Percent Effect equal to or exceeding 10%.

Below, 9 compounds whose answers are already recorded.
{"compound": "CCn1c(CN2CCCC2)nnc1C1CCN(Cc2ccc(C)o2)CC1", "qualitativeLabel": "NO"}
{"compound": "CN(C)c1ccc(CN(CCCn2ccnc2)Cc2c[nH]cn2)cc1", "qualitativeLabel": "NO"}
{"compound": "COc1cc2nc(C)n(CC(=O)NCCCN(C)C)c(=O)c2cc1OC", "qualitativeLabel": "NO"}
{"compound": "COC(=O)c1ccc(N2CCN(CCC#N)C(C)C2)cc1 (stereo unspecified)", "qualitativeLabel": "YES"}
{"compound": "COc1cccc(CN2CCOC(Cn3nc(C)cc3C)C2)c1 (stereo unspecified)", "qualitativeLabel": "NO"}
{"compound": "O=C(c1cccn1Cc1cccs1)N1CCN(C(=O)C2CC2)CC1", "qualitativeLabel": "NO"}
{"compound": "N#Cc1cc(NS(=O)(=O)c2ccc(C(=O)O)cc2F)ccc1F", "qualitativeLabel": "YES"}
{"compound": "CN(C)S(=O)(=O)N1CCC(Oc2ccc(C#N)cc2)CC1", "qualitativeLabel": "YES"}
{"compound": "O=C(C[C@@H]1COC[C@H]2CN(Cc3ccc(F)cc3)C[C@@H]12)N1CCCCO1", "qualitativeLabel": "YES"}

Lab note: next compound to report on.
Input line: Strictly below 10%: is that where Percent Effect of `O=S(=O)(NC1=NCN(CCc2cccs2)CN1)c1ccccc1` sits?
Output line: NO

----------
Biological target: Sialic acid-binding Ig-like lectin 9 (Homo sapiens)
Assay: Hs-Siglec9 ALPHAscreen SOP 20170721
Set-up: scale not given: direction of the effect not stated beside the values
Conditions: 10 µM
experimentalEndpoint: Percent Effect (%)
Your answer is read as %, so omit the unit and give the number.

Worked examples follow.
{"molecule": "CCn1cnnc1CNC(=O)CCC(=O)c1ccc2c(c1)OCCO2", "experimentalEndpoint": "Percent Effect", "experimentalResult": 6.97}
{"molecule": "CC(C)c1nccn1-c1cccc(C2CCCN2S(=O)(=O)N(C)C)n1 (stereo not drawn)", "experimentalEndpoint": "Percent Effect", "experimentalResult": -5.7}
{"molecule": "O=C(COc1ccccc1)N1CCC[C@]2(C[C@H](OCC3CC3)CO2)C1", "experimentalEndpoint": "Percent Effect", "experimentalResult": -3.06}
{"molecule": "CCCn1[nH]cc/c1=N\\C(=O)CN1CCOC(Cn2cc(C)cn2)C1 (stereo not drawn)", "experimentalEndpoint": "Percent Effect", "experimentalResult": 3.2}
{"molecule": "CC(C)Cc1cc(C(=O)NCc2nnc[nH]2)[nH]n1", "experimentalEndpoint": "Percent Effect", "experimentalResult": 7.63}

Input line: Quick one: Percent Effect for `CN1C[C@H]2CCN(C(=O)NC3CCCC3)CC[C@H]2S1(=O)=O` ?
Output line: -0.732

Input line: Quick one: Percent Effect for Cc1c(C(=O)NCC2CCCO2)nnn1-c1cccc2c1CCN(C)C2 (stereo not drawn) ?
Output line: -4.47

Input line: Quick one: Percent Effect for `c1cnn(CCNCc2csc(-c3ccsc3)n2)c1` ?
Output line: -10.8

Input line: Quick one: Percent Effect for `Cc1ccc(C(=O)N2CCN(S(C)(=O)=O)CC2)cc1N1CCNC1=O` ?
Output line: 15.8
